Where do the numbers come from? From patent US12110293B2.

Below, each of the molecules is paired with its reported IC50 or EC50 (agonist or antagonist mode not specified) value.
experimental.system: glucocorticoid receptor (Homo sapiens)
Construct: expressed in transfected cells
Sequence (P04150 524-758 limits assumed): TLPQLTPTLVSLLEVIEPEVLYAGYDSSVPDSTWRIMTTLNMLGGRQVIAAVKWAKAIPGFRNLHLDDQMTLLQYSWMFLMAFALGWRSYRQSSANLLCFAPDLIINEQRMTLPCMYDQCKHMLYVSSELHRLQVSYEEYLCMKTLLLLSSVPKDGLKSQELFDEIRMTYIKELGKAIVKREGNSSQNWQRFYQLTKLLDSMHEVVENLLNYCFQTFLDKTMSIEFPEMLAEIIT
method.notes: Agonistic mode of action on the glucocorticoid receptor (CHO-Gal4/GR luciferase reporter cell line)
Format: cell-based
experimental.conditions: range class observed in the agonistic assay or the antagonistic assay (CHO-Gal4/GR reporter cells); table does not say which mode applies per example
test.readout: IC50 or EC50 (agonist or antagonist mode not specified)

| structure.smiles | val |
| --- | --- |
| Cc1c(-c2cccc3c(C)c[nH]c23)c(OC(F)(F)F)cc2c1-n1c(C)nnc1C(C)(C)N2 | 100 to 1000 nM |
| CC#Cc1c[nH]c2c(-c3c(F)cc4c(c3C)-n3c(CO)nnc3C(C)(C)N4)cc(F)cc12 | 100 to 1000 nM |
| COCCn1ncc2c(-c3c(F)cc4c(c3F)-n3c(C)nnc3C(C)(C)N4)cccc21 | 100 to 1000 nM |
| COc1cc(-c2c(F)cc3c(c2C)-n2c(C)nnc2C(C)(C)N3)c2ccn(S(C)(=O)=O)c2c1 | 100 to 1000 nM |
| Cc1nnc2n1-c1c(cc(F)c(-c3cccc4c3ccn4S(=O)(=O)C3CCCC3)c1F)NC2(C)C | 1000 to 15000 nM |
| Cc1c(-c2ccc(F)c3[nH]ccc23)c(Cl)cc2c1-n1c(C)nnc1C(C)(C)N2 | 100 to 1000 nM |
| Cc1cc2c(c(F)c1-c1cccc3c1ccn3CC(F)F)-n1c(C)nnc1C(C)(C)N2 | 1000 to 15000 nM |
| Cc1c(-c2cccc3c(CC(F)(F)F)c[nH]c23)c(F)cc2c1-n1c(C)nnc1C(C)(C)N2 | < 100 nM |
